Entry source: PubChem BioAssay

- PROTOCOL_DETAILS: binders of probe aFGF10 on microarray, primary screen, stem cell growth factor project, biochemical, small-molecule microarray, fluorescence 635/667 (AID 1071);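 note: score merges 667 nm spot intensity and signal to noise from triplicate slides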
- EXPERIMENTAL_PARAMETERS: higher = more signal
Please mark criterion met if the recorded composite z-score is equal to or greater than 0.6, and criterion not met if it falls below.

Observe how each entry below is paired with its result.
> print(dat)
                                   molecule              label
1  CN(C)C(=O)[C@]1(Cc2ccccc2)N=C(c2ccc(OCCCO)cc2)O[C@@H]1c1ccccc1      criterion met
2  CCCCC=C[C@@H](NC(=O)c1ccc(C(F)(F)F)cc1)c1ccccc1  criterion not met
3  C=C(/C(=C/C[C@@H](OC(C)=O)c1ccccc1OCCO)c1cc(C(=O)OC)ccc1OC)C(C)C      criterion met

# check: composite z-score of COc1ccc(C(O)C2C=CC3C(=O)N(C)C(=O)C3N2Nc2ccc([N+](=O)[O-])cc2[N+](=O)[O-])cc1OCc1ccccc1 (stereo not given) is greater than or equal to 0.6
criterion met

For this molecule, is measured composite z-score 0.6 or higher? `CCCCC(=C=CC[C@@H](O)c1ccc(OCCO)cc1)C[C@@H](O)c1ccccn1`
criterion not met

====

- Test system: Sam68 (KHDRBS1)
- PROTOCOL_DETAILS: Sam68 small-molecule binders, primary screen, biochemical, small-molecule microarray, 635 nm fluorescence (AID 1125);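 note: score merges 667 nm channel intensity with signal to noise over triplicate slides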
- EXPERIMENTAL_PARAMETERS: small-molecule microarray binding, higher = more signal
Label 1 (yes) when composite z-score is at or above 1; otherwise label 0 (no).

Study these solved cases before continuing.
INPUT_SMILES	LABEL
COc1ccc(C#Cc2ccc3c(c2)[C@]2(C(=O)N3)[C@H](c3ccc(OCCO)cc3)N3[C@H](c4ccccc4)[C@H](c4ccccc4)OC(=O)[C@H]3[C@@H]2C(=O)O)cc1	1 (yes)
COCCOC(=O)N1C(=O)[C@@]2(c3cc(C#CCCO)ccc31)[C@H](C(=O)N1CCN(c3ncccn3)CC1)[C@H]1C(=O)O[C@H](c3ccccc3)[C@H](c3ccccc3)N1[C@@H]2c1ccc(O)cc1	1 (yes)
CCCCC(=C=CC[C@@H](O)c1cccc(OCCO)c1)C[C@@H](O)COCc1ccccc1	0 (no)
CCCCNC(=O)c1ccc(C#C[Si](C)(C)C)c(OC(C)=O)c1	0 (no)
NCCCC[C@@H]1NC(=O)[C@H]2C[C@@H](C(=O)NCc3ccc(F)cc3)[C@@H](c3ccc(O)cc3)N2C1=O	1 (yes)

For this molecule, is measured composite z-score 1 or higher? `COC(=O)c1ccc([C@H](NC(=O)c2ccccc2)[C@]2(C)C[C@H]2C2CCCCC2)cc1`
0 (no)

Decide: composite z-score of `COC(=O)Cn1c(C(=O)N(C)C)cc2c1C[C@H]1CN(C(=O)c3ccccc3)[C@@](Cc3ccc(OC)cc3)(C(=O)OC)[C@@H]21` >= 1?
1 (yes)

====

- PROTOCOL_DETAILS: PSAC antagonists in infected red cells, primary screen, cell-based, P. falciparum Indochina, OD700, 1 h (AID 1154)
- EXPERIMENTAL_PARAMETERS: P. falciparum Indochina infected RBC osmotic lysis, called active from +8 up or from −8 down
Active and inactive are the calls of the source.
Answer with one of the outcomes active, inactive

Reference set (5 entries):
COMPOUND	LABEL
COCCOC(=O)N1C(=O)[C@@]2(c3cc(C#CC4(O)CCCCCC4)ccc31)[C@H](c1ccc(OCCO)cc1)N1[C@H](c3ccccc3)[C@H](c3ccccc3)OC(=O)[C@H]1[C@@H]2C(N)=O	inactive
COC(=O)C(CC#Cc1ccc2c(c1)[C@]1(C(=O)N2)[C@H](c2ccc(O)cc2)N2[C@H](c3ccccc3)[C@H](c3ccccc3)OC(=O)[C@H]2[C@@H]1C(=O)N1CCc2cc(OC)c(OC)cc2C1)C(=O)OC	inactive
CCCCN1CC=CC23O[C@@H]4/C=C\CCC(C)OC(=O)C4[C@H]2C(=O)N(C(C)CO)[C@@H]3C1=O (stereo partly specified)	inactive
CCCC[C@@H](O)C1=C(COC)Cn2c(=O)n(-c3ccccc3)c(=O)n2[C@H]1CO	inactive
O=C1O[C@@H](c2ccccc2)[C@@H](c2ccccc2)N2[C@@H](c3ccc(O)cc3)[C@]3(C(=O)Nc4ccc(C#CC5=CCCCC5)cc43)[C@@H](C(=O)N3CCCCCCC3)[C@H]12	inactive

Any idea what this test logged for `COCCCN1C(=O)[C@@]2(Cc3ccccc31)c1ccccc1C(=O)N(Cc1ccccc1OC)[C@H]2c1ccc(CO)cc1` ?
inactive

Short answer needed: outcome of this test for CCCCC(O)C1C=CC2C(=O)NC(=O)C2N1Nc1ccc(Cl)cc1Cl (stereo unspecified) ?
inactive

For `C=CCNC(=O)[C@H]1[C@@H]2C(=O)O[C@@H](c3ccccc3)[C@@H](c3ccccc3)N2[C@@H](c2ccc(O)cc2)[C@]12C(=O)Nc1ccc(C#CC3=CCCCC3)cc12` , which call appears in the assay record?
inactive

====

- PROTOCOL_DETAILS: HepG2 cell viability effects, profiling panel, calcein-AM fluorescence, 48 h, basal (AID 1164); note: test concentration not given here
- EXPERIMENTAL_PARAMETERS: higher = more signal
Classification field: enter T for z-score values not below -0.9, F for values below it.

Solved cases (2 shown):
COMPOUND	LABEL
C=CCC(OC(C)=O)[C@@H]1[C@@H](N(Cc2ccc(-c3ccccc3)cc2)C(=O)c2ccc(-c3ccccc3)cc2)c2cc(OCCCO)ccc2N1C(=O)c1ccc2ccccc2n1 (some centres undefined)	T
C#CCN(C/C=C/c1ccccc1)[C@H](CO[Si](C)(C)C(C)(C)C)c1ccccc1	T

Is z-score for `COC(=O)[C@@]1(CCC(=O)OC(C)(C)C)N=C(c2ccc(OCCCO)cc2)O[C@H]1c1ccccc1CN=[N+]=[N-]` at or above -0.9?
F

Form field: z-score at least -0.9? Entry: O=C1C2C=CC(C(O)c3cccc(O)c3)N(Nc3ccccc3F)C2C(=O)N1c1ccccc1 (centres undefined)
F

Does `O=C1N(CCS(=O)(=O)c2ccccc2)c2ccccc2[C@@H]2OC(c3ccc(OCCCO)cc3)=N[C@]12CCS(=O)(=O)c1ccccc1` have a reported z-score of at least -0.9?
T

Could you tell me if the measured z-score of `Cc1ccc(S[C@]2(C(=O)NC3CC3)CC(=O)N(Cc3cc(C(F)(F)F)cc(C(F)(F)F)c3)[C@@H]2c2ccc(CO)cc2I)cc1` reaches -0.9 or more?
T

Is it the case that `COc1ccccc1CN1C(=O)c2ccccc2[C@](Cc2ccccc2I)(C(=O)NCCCN(C)C)[C@@H]1c1ccc(CO)cc1` has z-score reaching or exceeding -0.9?
F

Form field: z-score at least -0.9? Entry: `COc1ccc([Si](C)(C)[C@@H]2[C@@H](CC(=O)N(CCO)Cc3ccccc3)O[C@]3(C(=O)N(Cc4ccc(N5CCC5=O)cc4)c4ccccc43)[C@H]2C)cc1`
F

Hi team, for `COCCCNC(=O)[C@@]1(Sc2ccc(C)cc2)CC(=O)N(C2CCCCC2)[C@@H]1c1ccc(CO)cc1I` , is the recorded z-score at or above -0.9?
T

Kindly determine if z-score recorded for `CC(C)(C)OC(=O)CC[C@]1(C(N)=O)N=C(c2ccc(OCCCO)cc2)O[C@H]1c1ccccc1CN=[N+]=[N-]` is above or exactly -0.9.
T

Test whether the compound C=CCC(OC(C)=O)[C@@H]1[C@@H](N(Cc2ccc(-c3cccc(C(F)(F)F)c3)o2)C(=O)Cc2ccc(F)cc2)c2cc(OCCCO)ccc2N1C(=O)c1ccc2ccccc2n1 (some centres undefined) records z-score of -0.9 or higher.
T

Entry `COc1ccc(NC(=O)O[C@H]2[C@H](OC(=O)Nc3ccc4c(c3)OCO4)[C@H](OC(=O)Nc3ccc4c(c3)OCO4)[C@@H](OC)O[C@@H]2CO)cc1` : is its z-score no less than -0.9?
T

Textbook exercise: given the entry `CC(C)C[C@@H]1NC(=O)[C@@H]2C[C@H](C(=O)O)[C@H](c3ccc(O)cc3)N2C1=O` , state whether its z-score is greater than or equal to -0.9.
T

Does z-score meet or surpass -0.9 for `COc1ccc([Si](C)(C)[C@H]2[C@H](CCn3cc([C@H](O)c4ccccc4)nn3)O[C@@]3(C(=O)N(C)c4c(Br)cc(C)cc43)[C@@H]2C)cc1` ?
F

Is z-score for C=CCC(OC(C)=O)[C@@H]1[C@@H](N(Cc2cccc3ccccc23)C(=O)c2ccc(C)cc2)c2cc(OCCCO)ccc2N1C(=O)c1ccc2ccccc2n1 (some centres undefined) at or above -0.9?
T

Reported z-score at or above -0.9? `CCCCC(=C=CC[C@@H](O)c1cccc(OCCO)c1)CCO`
T

In plain terms: is recorded z-score at least -0.9 for `CN(C)CCCC[C@@H]1NC(=O)[C@@H]2C[C@H](C(=O)NCc3ccc(F)cc3)[C@H](c3ccc(O)cc3)N2C1=O` ?
T

Given `[N-]=[N+]=NCc1ccccc1C[C@@]1(C(=O)O)N=C(c2ccc(OCCCO)cc2)O[C@@H]1c1ccccc1CN=[N+]=[N-]` , state whether its z-score is at least -0.9.
T

Given `COCCOC(=O)N1C(=O)[C@@]2(c3cc(C#CCNC(N)=O)ccc31)[C@H](C(=O)NC[C@H](O)c1ccccc1)[C@H]1C(=O)O[C@H](c3ccccc3)[C@H](c3ccccc3)N1[C@@H]2c1ccc(OCCO)cc1` , state whether its z-score is at least -0.9.
F

Test whether the compound `Cc1ccc(S(=O)(=O)N2[C@@H](c3ccccc3)C(C(=O)O)=CC[C@H]2c2ccc(C#N)cc2)cc1` records z-score of -0.9 or higher.
T
